Hello, the source for this data is patent US20150307616A1, in case you need it.

TESTED SYSTEM: human CD40 on the cell surface (human, UniProt P25942 21-277)
Sequence (P25942 21-277): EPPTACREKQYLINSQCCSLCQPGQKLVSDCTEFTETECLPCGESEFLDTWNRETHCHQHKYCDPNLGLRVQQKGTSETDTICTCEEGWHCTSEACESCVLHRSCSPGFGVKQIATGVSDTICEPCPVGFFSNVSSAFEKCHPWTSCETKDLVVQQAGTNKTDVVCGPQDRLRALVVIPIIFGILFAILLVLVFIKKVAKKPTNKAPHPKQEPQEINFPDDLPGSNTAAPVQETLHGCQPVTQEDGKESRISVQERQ
MEASUREMENT PROTOCOL: cell-based or functional assay
EXPERIMENTAL READOUT: ADCC (% cytotoxicity of Ramos cell at 1 µg/ml) (%)
Please reply with the bare figure in % and do not write the unit itself.

{"BINDER": "cR-8 chimeric anti-CD40 antibody (antibody, V domains shown) VH: QSLEESGGDLVKPGASLTLTCTASGFSFSSTYVCWVRQAPGKGLEWIACIYTGDGTNYSASWAKGRFTISKPSSTTVTLQMTSLTPADTATYFCARPDITYGFAINFWGPGTLVTVSS VL: DIVMTQTPSSASEPVGGTVTIKCQASQSISSRLAWYQQKPGQPPKLLIYRASTLASGVPSRFKGSGSGTEFTLTISDLECADAATYYCQCTGYGISWPIGGGTEVVVK", "RESULT": 33}
{"BINDER": "c19-21 chimeric anti-CD40 antibody (antibody, V domains shown) VH: QSLEESGGRLVTPGTPLTLTCTVSGFDLSSNAMNWVRQAPGKGLEWIGYITISGSAGYASWAKGRFTISKTSTTVDLKISSPTTEDTATYFCARGYNTMAIWGPGTLVTVSS VL: AQVLTQTPSPVSAPVGGTVTINCQSSQNVLINNRLAWYQQKPGQPPKLLIYDASKLASGVPSRFKGSGSGTQFTLTISGVQCDDAATYYCQAGYSSGDGNAFGGGTEVVVK", "RESULT": 26}
{"BINDER": "cR-3 chimeric anti-CD40 antibody (antibody, V domains shown) VH: QSLEESGGDLVKPGASLTLTCTASGFSFSDSFWIAWVRQAPGKGLEWIGCIHALSSGSTYYANWARGRFTISKTSSTTVTLQMNSLTAADTATYFCARSYAGYADYNVATGLNLWGPGTLVTVSS VL: DVVMTQTPSSASAAVGGTVTTKCQASQSIGSYLAWYQQKPGQRPKLLIYAASNLASGVPSRFKGSRSGTEYTLTISGVQREDAATYYCLGSFTGSDTTFGGGTELEIL", "RESULT": 30}

API: the following record is the query input.
Recorded ADCC (% cytotoxicity of Ramos cell at 1 µg/ml) (binder cR-33 chimeric anti-CD40 antibody (antibody, V domains shown) VH: QSLEESGGDLVKPGASLTLTCTASGFSFSSSYWICWVRQAPGKGLEWIACINTGSSVTTVYARWAKGRFTISKASSTTVTLQMTSLTAADTATYFCARYIIPGYNFNLWGPGTLVTVSS VL: AYDMTQTPASVEVAVGGTVTINCQASQSISSYLYWYQQKPGQPPKLLIYDASKLASGVPSRFKGSGSGTQFTLTITGVECADAATYYCQQGYSHINVDNIFGGGTEVVVK ): 29
